biological target: P2RY1 (Homo sapiens); construct: purchased Promega (in-house HiBiT-GPCR construct library, NanoBRET); test: NanoBRET screen HiBiT-P2RY1 in HEK293; type: binding; settings: P2RY1; tracer 1μM
Sequence (P47900 whole entry): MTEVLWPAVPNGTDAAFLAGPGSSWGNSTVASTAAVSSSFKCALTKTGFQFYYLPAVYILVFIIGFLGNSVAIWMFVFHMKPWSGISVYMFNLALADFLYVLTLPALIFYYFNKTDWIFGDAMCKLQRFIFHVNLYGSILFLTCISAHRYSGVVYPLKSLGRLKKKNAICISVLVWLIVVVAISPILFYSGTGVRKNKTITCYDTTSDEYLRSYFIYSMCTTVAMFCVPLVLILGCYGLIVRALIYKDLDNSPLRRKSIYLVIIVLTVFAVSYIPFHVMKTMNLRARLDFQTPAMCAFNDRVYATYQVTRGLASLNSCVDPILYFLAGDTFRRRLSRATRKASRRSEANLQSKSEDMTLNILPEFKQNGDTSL
Assign labels as follows, please: 1 for NanoBRET Fold Response below 1; -1 for NanoBRET Fold Response equal to or exceeding 1.

Below are worked cases with known answers.
* O=C(CCOCCOCCOCCOCCNC(=O)CCc1ccc2n1[B-](F)(F)[N+]1=C(c3ccc[nH]3)C=CC1=C2)NCCCN1CCN(C2=Nc3ccccc3Oc3ccc(Cl)cc32)CC1 | 1
* O=C(CCc1ccc2n1[B-](F)(F)[N+]1=C(c3ccc[nH]3)C=CC1=C2)NCc1ccc(C(=O)NCCOCCC(=O)N[C@@H]2CC[C@@]3(O)[C@H]4Cc5ccc(O)c6c5[C@@]3(CCN4CC3CC3)[C@H]2O6)cc1 [Naltrexone-3-NB590] | 1

Next, consider the following compound.
Dear reviewer, please state whether CC(C)N(CC[C@H](c1ccccc1)c1cc(CCNC(=O)c2ccc(CNC(=O)CCc3ccc4n3[B-](F)(F)[N+]3=C(c5ccc[nH]5)C=CC3=C4)cc2)ccc1O)C(C)C has NanoBRET Fold Response strictly beneath 1.
-1

###

molecular target: ADCYAP1R1 (Homo sapiens); construct: purchased Promega (in-house HiBiT-GPCR construct library, NanoBRET); assay: NanoBRET screen HiBiT-ADCYAP1R1 in HEK293; type: binding; conditions: ADCYAP1R1; tracer 0.1μM
Sequence (P41586 21-468): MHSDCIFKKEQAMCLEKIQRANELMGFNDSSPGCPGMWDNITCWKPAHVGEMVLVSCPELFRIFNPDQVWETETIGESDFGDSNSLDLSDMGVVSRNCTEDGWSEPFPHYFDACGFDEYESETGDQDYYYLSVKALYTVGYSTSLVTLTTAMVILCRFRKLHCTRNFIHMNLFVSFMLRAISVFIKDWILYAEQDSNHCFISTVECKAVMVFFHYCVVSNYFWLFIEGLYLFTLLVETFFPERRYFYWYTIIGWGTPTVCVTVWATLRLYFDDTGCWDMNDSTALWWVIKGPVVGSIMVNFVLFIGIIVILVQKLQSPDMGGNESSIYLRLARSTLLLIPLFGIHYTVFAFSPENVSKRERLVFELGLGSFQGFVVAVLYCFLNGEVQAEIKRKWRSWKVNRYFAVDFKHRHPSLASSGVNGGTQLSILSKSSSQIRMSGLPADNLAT
Assignment: determine reported NanoBRET Fold Response for the given molecules.
Numbers only.

These solved cases illustrate the format of a correct answer.
• COc1ccccc1N1CCN(CCCCN2C(=O)c3ccc(CNC(=O)CCOCCOCCOCCOCCNC(=O)CCc4ccc5n4[B-](F)(F)[N+]4=C(c6ccc[nH]6)C=CC4=C5)cc3C2=O)CC1 = 1.08
• CC(C)N(CC[C@H](c1ccccc1)c1cc(CCNC(=O)CCOCCOCCOCCOCCNC(=O)CCc2ccc3n2[B-](F)(F)[N+]2=C(c4ccc[nH]4)C=CC2=C3)ccc1O)C(C)C = 0.68
• O=C(CCc1ccc2n1[B-](F)(F)[N+]1=C(c3ccc[nH]3)C=CC1=C2)NCCOCCOCCNC(=O)OCCOCCN1CCN(C2=Nc3ccccc3Sc3ccccc32)CC1 = 1.03
• N#CN=C(NCCCOc1cccc(CN2CCCCC2)c1)NCCNC(=O)CCOCCOCCOCCOCCNC(=O)CCc1ccc2n1[B-](F)(F)[N+]1=C(c3ccc[nH]3)C=CC1=C2 = 1.00

Let's switch to this molecule now.
Entry Cc1cc2c(s1)Nc1ccccc1N=C2N1CCN(CCCNC(=O)CCOCCOCCOCCOCCNC(=O)CCc2ccc3n2[B-](F)(F)[N+]2=C(c4ccc[nH]4)C=CC2=C3)CC1 , system ADCYAP1R1 (Homo sapiens): what NanoBRET Fold Response was measured?
1.02

###

molecular target: P2RY2 (Homo sapiens); construct: purchased Promega (in-house HiBiT-GPCR construct library, NanoBRET); test: NanoBRET screen HiBiT-P2RY2 in HEK293; type: binding; conditions: P2RY2; tracer 0.1μM
Sequence (P41231 whole entry): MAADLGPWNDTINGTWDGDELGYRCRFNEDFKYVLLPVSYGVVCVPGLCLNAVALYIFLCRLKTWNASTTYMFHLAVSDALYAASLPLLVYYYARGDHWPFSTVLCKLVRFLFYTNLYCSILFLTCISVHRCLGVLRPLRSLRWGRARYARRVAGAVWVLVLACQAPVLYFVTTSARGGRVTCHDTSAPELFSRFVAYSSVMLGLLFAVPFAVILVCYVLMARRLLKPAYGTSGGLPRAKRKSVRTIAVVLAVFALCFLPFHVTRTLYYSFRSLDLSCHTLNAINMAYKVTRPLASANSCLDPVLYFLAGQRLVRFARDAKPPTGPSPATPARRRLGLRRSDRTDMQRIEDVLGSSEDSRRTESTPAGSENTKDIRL
Assignment: determine reported NanoBRET Fold Response for the given molecules.

These solved cases illustrate the format of a correct answer.
- CC(C)N(CC[C@H](c1ccccc1)c1cc(CCNC(=O)CCOCCOCCOCCOCCNC(=O)CCc2ccc3n2[B-](F)(F)[N+]2=C(c4ccc[nH]4)C=CC2=C3)ccc1O)C(C)C: 1.06
- COc1ccccc1N1CCN(CCCCN2C(=O)c3ccc(CNC(=O)CCOCCNC(=O)c4ccc(CNC(=O)CCc5ccc6n5[B-](F)(F)[N+]5=C(c7ccc[nH]7)C=CC5=C6)cc4)cc3C2=O)CC1: 1.00

Let's switch to this molecule now.
Entry O=C(CCOCCOCCOCCOCCNC(=O)CCc1ccc2n1[B-](F)(F)[N+]1=C(c3ccc[nH]3)C=CC1=C2)NCCCN1CCN(C2=Nc3ccccc3Oc3ccc(Cl)cc32)CC1 , system P2RY2 (Homo sapiens): what NanoBRET Fold Response was measured?
0.99
